tested on: Crithidia fasciculata; assay: The compound was tested for 50% growth inhibition against Crithidia fasciculata; assay type: functional, organism-based; conditions: read-out: I50
readout type: pIC50
Keep in mind that pIC50 stands for -log10 of concentration in molar terms.

Below: 3 compounds and their reported pIC50.
INSERT INTO assay_data (compound, measured_result) VALUES
  ('CCCCCCCCCCSCCCCCCC(=O)O', 6.10),
  ('CCCCCCCSCCCCCCCCCC(=O)O', 5.52),
  ('CCCCCCCCSCCCCCCCCC(=O)NCC(O)CO (stereo not drawn)', 4.77);

Give pIC50 for `CCCCCCCCSCCCCCCCCC(=O)O` 5.00
